Hello, the source for this data is paper PMC6155273, in case you need it.

In this section, each of the molecules is paired with its reported IC50.
- Test system: L. braziliensis promastigotes
- TEST METHOD NOTES: Leishmanicidal activity on L. braziliensis promastigotes (resazurin)
- Assay type: cell-based, Leishmania braziliensis
- EXPERIMENTAL SETUP: Leishmania braziliensis; promastigotes, 48 h; read-out: Leishmanicidal Activity on Promastigotes, L. braziliensis, IC50
# number only, unit µg/mL dropped from output

MOLECULE: C#CCCCC(=O)O[C@H]1CC[C@@]2(C)C(CC[C@]3(C)C2CC=C2[C@@H]4CC(C)(C)CC[C@]4(C(=O)O)CC[C@]23C)C1(C)C (stereo partly drawn) [Compound 19]
IC50 / µg/mL: 109

Proceeding to the next molecule to report its IC50.
Lookup: Dear colleague, please send me the reported IC50 for Cc1ccc(S(=O)(=O)n2cc(CCCCC(=O)OC[C@]3(C)CCC[C@]4(C)c5ccc(C(C)C)cc5CCC34)nn2)cc1 (stereo partly drawn) [Compound 16] when you can.
Found: 71
